target: LTBP-proTGFβ1 in the LN229 CAGA12 assay of Table 20 (endogenous or over-expressed murine LTBP1 not stated); test: cell-based or functional assay
Kindly supply the reported IC50 (CAGA12 luciferase) values for the records listed here.
Answers are plain numbers, in pM.

Sample records with IC50 (CAGA12 luciferase):
BINDER: SR-AB56-HuFab (Fab, V domains shown) VH: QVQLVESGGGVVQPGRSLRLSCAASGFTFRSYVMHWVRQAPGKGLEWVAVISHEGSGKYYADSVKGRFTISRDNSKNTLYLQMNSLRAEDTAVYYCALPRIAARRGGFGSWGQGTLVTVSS VL: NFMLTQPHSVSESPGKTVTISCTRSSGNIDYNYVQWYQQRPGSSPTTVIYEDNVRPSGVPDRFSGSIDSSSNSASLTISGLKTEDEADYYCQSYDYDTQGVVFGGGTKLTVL
IC50 (CAGA12 luciferase) [pM]: 439
//
BINDER: SR-AB60-HuFab (Fab, V domains shown) VH: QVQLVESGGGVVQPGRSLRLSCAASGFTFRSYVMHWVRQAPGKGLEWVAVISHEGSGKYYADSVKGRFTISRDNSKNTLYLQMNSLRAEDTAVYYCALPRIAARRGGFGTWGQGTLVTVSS VL: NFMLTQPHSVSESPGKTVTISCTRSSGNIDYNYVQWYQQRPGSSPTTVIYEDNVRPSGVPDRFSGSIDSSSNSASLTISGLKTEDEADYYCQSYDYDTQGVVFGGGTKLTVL
IC50 (CAGA12 luciferase) [pM]: 742
//
BINDER: SR-AB50-HuFab (Fab, V domains shown) VH: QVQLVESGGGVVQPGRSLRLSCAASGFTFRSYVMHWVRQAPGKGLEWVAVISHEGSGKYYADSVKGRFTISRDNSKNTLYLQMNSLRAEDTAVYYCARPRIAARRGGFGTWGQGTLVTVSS VL: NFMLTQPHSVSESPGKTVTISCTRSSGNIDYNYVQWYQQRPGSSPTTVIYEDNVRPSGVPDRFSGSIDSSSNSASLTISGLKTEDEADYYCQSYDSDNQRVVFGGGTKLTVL
IC50 (CAGA12 luciferase) [pM]: 11000

Here are 4 binders. What values of IC50 (CAGA12 luciferase) were reported for them?
1. SR-AB51-HuFab (Fab, V domains shown) VH: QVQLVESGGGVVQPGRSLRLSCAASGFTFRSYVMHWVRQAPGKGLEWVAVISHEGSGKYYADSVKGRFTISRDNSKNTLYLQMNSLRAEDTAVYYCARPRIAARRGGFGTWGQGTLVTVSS VL: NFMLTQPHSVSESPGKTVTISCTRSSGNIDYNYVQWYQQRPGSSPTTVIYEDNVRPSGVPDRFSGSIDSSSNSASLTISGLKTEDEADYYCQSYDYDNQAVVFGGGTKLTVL
2. SR-AB48-HuFab (Fab, V domains shown) VH: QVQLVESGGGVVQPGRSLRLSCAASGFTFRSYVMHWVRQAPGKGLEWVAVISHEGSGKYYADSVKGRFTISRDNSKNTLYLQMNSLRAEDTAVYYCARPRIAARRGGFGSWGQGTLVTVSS VL: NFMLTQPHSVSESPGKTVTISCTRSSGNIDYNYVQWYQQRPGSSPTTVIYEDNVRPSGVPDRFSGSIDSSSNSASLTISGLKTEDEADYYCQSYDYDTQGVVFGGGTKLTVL
3. SR-AB59-HuFab (Fab, V domains shown) VH: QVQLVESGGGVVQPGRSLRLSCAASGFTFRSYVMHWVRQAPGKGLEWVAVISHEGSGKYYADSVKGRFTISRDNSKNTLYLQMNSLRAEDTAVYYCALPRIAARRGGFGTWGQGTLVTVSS VL: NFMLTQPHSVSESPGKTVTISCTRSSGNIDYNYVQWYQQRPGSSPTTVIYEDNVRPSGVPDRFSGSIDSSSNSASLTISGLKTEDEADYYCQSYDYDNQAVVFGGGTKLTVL
4. SR-AB55-HuFab (Fab, V domains shown) VH: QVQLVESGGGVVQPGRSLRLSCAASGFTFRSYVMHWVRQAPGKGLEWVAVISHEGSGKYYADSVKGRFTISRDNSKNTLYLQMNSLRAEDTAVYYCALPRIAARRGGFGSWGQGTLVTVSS VL: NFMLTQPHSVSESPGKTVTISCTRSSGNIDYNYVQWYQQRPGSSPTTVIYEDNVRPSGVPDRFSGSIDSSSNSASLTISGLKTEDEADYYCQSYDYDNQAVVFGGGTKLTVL

A:
1: 535; 2: 523; 3: 195; 4: 536

Q: Which value of IC50 (CAGA12 luciferase) has been reported for SR-AB47-HuFab (Fab, V domains shown) VH: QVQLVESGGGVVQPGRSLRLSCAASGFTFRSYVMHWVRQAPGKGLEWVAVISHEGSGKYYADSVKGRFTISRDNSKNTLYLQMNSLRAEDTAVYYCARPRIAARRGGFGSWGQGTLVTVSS VL: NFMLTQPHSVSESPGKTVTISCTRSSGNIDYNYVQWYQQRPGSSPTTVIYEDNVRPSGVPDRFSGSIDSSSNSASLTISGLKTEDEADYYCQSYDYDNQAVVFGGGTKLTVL in the records?
A: 186

Just for reference, patent US20220064276A1 is where these values come from.
